B1: MTMR15 (parent)
chain: FSPDFTLRNTLKSTSEDSLVKQEC

Variants of: B1
Experiment: protein stability index of a GFP-peptide fusion (GPS, HEK-293T) (PSI 1-6); higher = more stable;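 note: lentivirally expressed fusions sorted by FACS into six bins by GFP to DsRed ratio, PSI derived from sequencing read proportions per bin multiplied by bin number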
Details: c terminus: a fixed tail appended
Answer not met if protein stability index is under 2, and met if it is 2 or more.

Reference set, count: 2
FSPDFTLRNTLKPTSEDSLVKQEC [S13P]
met
FSPDFELRNTLKSTSEDSLVKQEC [T6E]
met

// next entry
Determine whether measured protein stability index meets or exceeds 2 for FSPDFTLRNQLKSTSEDSLVKQEC [T10Q]
not met

Source listed as the supplement of paper PMC10567573.
